Reported values of rel. spheroid area for individual entries
# Tested on: human melanoma cell line BLM
# ASSAY_PROCEDURE: Spheroid invasion assay (migrastatic activity)
# Format: cell-based
# MEASUREMENT_SETUP: 10 µM, 24 h, BLM spheroids in collagen; DMSO control 1.02

COMPOUND	rel. spheroid area
COC(=O)[C@@]12C(=O)N[C@@H](Cc3ccccc3)[C@@H]1[C@H](C)C(C)=C[C@@H]2CCOCCc1cccc(Br)c1 [Compound 17i]	1.14
COC(=O)[C@@]12C(=O)N[C@@H](Cc3ccccc3)[C@@H]1[C@H](C)C(C)=C[C@@H]2CCOCCc1cccc(F)c1 [Compound 17e]	0.96
COC(=O)[C@@]12C(=O)N[C@@H](Cc3ccccc3)[C@@H]1[C@H](C)C(C)=C[C@@H]2CCOCCc1ccc(C)cc1 [Compound 17c]	0.93
C=C1[C@@H](C)[C@H]2[C@H](Cc3ccccc3)NC(=O)[C@]23[C@H](OC(C)=O)/C=C/[C@@](C)(O)C(=O)[C@@H](C)C/C=C/[C@H]3[C@@H]1O [CytD (2), cytochalasin D, reference compound]	0.23
COC(=O)[C@@]12C(=O)N[C@@H](Cc3ccccc3)[C@@H]1[C@H](C)[C@@](C)(O)[C@@H](O)[C@@H]2CCOCCc1ccc(OC)cc1 [Compound 23b]	1.10
COC(=O)[C@@]12C(=O)N[C@@H](Cc3ccccc3)[C@@H]1[C@H](C)[C@@](C)(Cl)[C@H](O)[C@@H]2CCOCCc1ccccc1	0.88
COC(=O)[C@@]12C(=O)N[C@@H](Cc3ccccc3)[C@@H]1[C@H](C)[C@@]1(C)O[C@H]1[C@@H]2CCOCCc1ccc(OC)cc1 [Compound 22b]	1.24
COC(=O)[C@@]12C(=O)N[C@@H](Cc3ccccc3)[C@@H]1C(C)=C(C)[C@@H](O)[C@@H]2CCOCCc1ccccc1	1.15

====

Reported values of IC50 for individual entries
# Test system: human fibroblasts (MRC-5)
# ASSAY_PROCEDURE: WST-1 viability assay, MRC-5 cells
# Format: cell-based
# MEASUREMENT_SETUP: MRC5, 72 h treatment, WST-1 assay, 2D culture, 0–50 μM
PROPERTY: IC50 (µM)

>>> print(df.to_string())
                                   molecule  units_label  endpoint_value
0  COC(=O)[C@@]12C(=O)N[C@@H](Cc3ccccc3)[C@@H]1[C@H](C)C(C)=C[C@@H]2CCOCCc1cccc(Br)c1 [Compound 17i]           µM            31.2
1  COC(=O)[C@@]12C(=O)N[C@@H](Cc3ccccc3)[C@@H]1[C@H](C)C(C)=C[C@@H]2CCOCCc1ccccc1 [Compound 17a]           µM            30.5
2  COC(=O)[C@@]12C(=O)N[C@@H](Cc3ccccc3)[C@@H]1[C@H](C)C(C)=C[C@@H]2CCOCCc1ccccc1F [Compound 17f]           µM            34.5

====

# System: human melanoma cell line BLM
# ASSAY_PROCEDURE: Spheroid invasion assay (migrastatic activity)
# Assay type: cell-based
# MEASUREMENT_SETUP: 10 µM, 24 h, BLM spheroids in collagen; DMSO control 1.02
# Experimental: Compounds 17, 20, and 22–30 were screened for their migrastatic activity using a spheroid invasion assay with the human melanoma cell line BLM.[46] […] The spheroid invasion assay was performed following a previously published protocol.[63] […] The area of the spheroids at 0 and 24 h was measured using FiJi (Rasband, W.S., ImageJ, NIH, Bethesda, MD, USA). Cellular invasiveness was determined as an increase in spheroid area within 24 h. […]
PROPERTY: rel. spheroid area

                                   molecule            property  endpoint_value
0  COC(=O)[C@@]12C(=O)N[C@@H](Cc3ccccc3)[C@@H]1[C@H](C)C(C)=C[C@@H]2CCOCCc1ccc(F)cc1 [Compound 17d]  rel. spheroid area            1.24
1  COC(=O)[C@@]12C(=O)N[C@@H](Cc3ccccc3)[C@@H]1[C@H](C)C(C)=C[C@@H]2CCOCCc1ccc(Br)cc1 [Compound 17h]  rel. spheroid area            1.05
2  COC(=O)[C@@]12C(=O)N[C@@H](Cc3ccccc3)[C@@H]1[C@H](C)C(C)=C[C@@H]2CCOCCc1ccc([N+](=O)[O-])cc1 [Compound 17j]  rel. spheroid area            1.12
3  COC(=O)[C@@]12C(=O)N[C@@H](Cc3ccccc3)[C@@H]1C(C)=C(C)[C@@H](OC(C)=O)[C@@H]2CCOCCc1ccccc1  rel. spheroid area            0.72
4  COC(=O)[C@@]12C(=O)N[C@@H](Cc3ccccc3)[C@@H]1[C@H](C)C(C)=C[C@@H]2CCOCCc1ccccc1F [Compound 17f]  rel. spheroid area            0.92
5  CC1=C[C@H](CCOCCc2ccccc2)[C@]2(CO)C(=O)N[C@@H](Cc3ccccc3)[C@@H]2[C@@H]1C  rel. spheroid area            0.50
